quantity-measured: melting point

Completed entries (count: 2):
[
  {
    "molecule": "CCCOc1ncc(-c2cc(O)no2)cc1-c1nc2c(CCC)nn(C)c2c(=O)[nH]1",
    "result": "239 to 241 °C"
  },
  {
    "molecule": "CCCOc1ncc(C(C)=O)cc1-c1nc2c(CC)n(C3CCN(C)CC3)nc2c(=O)[nH]1",
    "result": "219 to 220 °C"
  }
]

Ask: Specify measured melting point for CCCOc1ncc(NC(C)C(=O)OC)cc1-c1nc2c(CCC)nn(C)c2c(=O)[nH]1 (centres unmarked) .
Result: 185 to 187 °C

Ask: Given "CCCc1nn(C)c2c(=O)[nH]c(-c3cc(NC(C)=O)cnc3OC3CCC3)nc12" , respond with its melting point.
Result: 279 to 281 °C

Ask: Supply melting point value. Item: "CCCOc1ncc(C(C)=O)cc1-c1nc2c(CC)n(C3CCN(C(C)=O)CC3)nc2c(=O)[nH]1"
Result: 213 to 214 °C

Ask: Look up melting point of "CCCc1nn(C)c2c(=O)[nH]c(-c3cc([N+](=O)[O-])cnc3OC3CCC3)nc12" and report it.
Result: 212 to 214 °C

Ask: Answer with the recorded melting point of "CCCOc1ncc(I)cc1-c1nc2c(CC)n(Cc3ccccn3)nc2c(=O)[nH]1" only.
Result: 228.9 to 233.8 °C

Ask: Give me measured melting point, please, for this molecule: "CCCOc1ncc(C(C)=O)cc1-c1nc2c(CC)n(C3CN(C(C)=O)C3)nc2c(=O)[nH]1"
Result: 229.3 to 230.1 °C
